Target: UniProt Q12809
Sequence (Q12809 whole entry): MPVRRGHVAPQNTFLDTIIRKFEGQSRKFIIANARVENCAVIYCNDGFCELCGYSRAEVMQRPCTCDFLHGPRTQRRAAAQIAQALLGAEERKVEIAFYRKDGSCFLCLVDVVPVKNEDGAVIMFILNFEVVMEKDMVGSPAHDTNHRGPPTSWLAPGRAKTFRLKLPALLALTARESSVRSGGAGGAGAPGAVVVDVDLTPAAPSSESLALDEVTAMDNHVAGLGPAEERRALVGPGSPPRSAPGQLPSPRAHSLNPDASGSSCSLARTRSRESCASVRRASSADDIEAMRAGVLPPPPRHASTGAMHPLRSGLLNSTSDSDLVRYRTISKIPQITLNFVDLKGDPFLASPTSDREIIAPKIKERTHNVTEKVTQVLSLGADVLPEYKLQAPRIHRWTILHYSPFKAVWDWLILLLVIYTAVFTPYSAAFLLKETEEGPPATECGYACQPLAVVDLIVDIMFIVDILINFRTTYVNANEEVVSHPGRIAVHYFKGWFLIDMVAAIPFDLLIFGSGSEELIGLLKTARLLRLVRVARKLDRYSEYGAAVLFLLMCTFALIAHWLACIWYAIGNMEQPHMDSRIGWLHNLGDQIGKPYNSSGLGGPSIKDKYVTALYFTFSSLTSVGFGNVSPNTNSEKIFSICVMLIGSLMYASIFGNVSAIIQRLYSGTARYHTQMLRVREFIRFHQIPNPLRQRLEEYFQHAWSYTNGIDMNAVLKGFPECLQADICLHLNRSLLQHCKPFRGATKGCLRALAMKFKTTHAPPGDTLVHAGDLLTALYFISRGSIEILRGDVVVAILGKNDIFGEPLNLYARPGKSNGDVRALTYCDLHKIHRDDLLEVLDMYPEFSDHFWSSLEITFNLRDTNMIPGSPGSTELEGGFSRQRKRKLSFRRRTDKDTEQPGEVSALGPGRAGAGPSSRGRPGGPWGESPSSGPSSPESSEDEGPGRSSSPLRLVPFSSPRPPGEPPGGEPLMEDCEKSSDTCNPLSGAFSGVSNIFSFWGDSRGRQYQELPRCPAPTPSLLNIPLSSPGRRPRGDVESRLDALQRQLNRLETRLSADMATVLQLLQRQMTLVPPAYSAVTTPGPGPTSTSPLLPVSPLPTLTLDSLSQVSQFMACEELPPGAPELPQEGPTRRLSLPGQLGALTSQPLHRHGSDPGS
measurement.label: IC50

Supply measured IC50 of Cc1ccc2[nH]c(C(=O)N3CCC(CC(C)(C)O)CC3)cc2c1 in your reply.
> 100 µM

---

Assay: Permeability of the compound after 2 hrs at pH 6.5 by PAMPA
Type: ADME
Settings: read-out: permeability
I'd appreciate it if you could supply Papp at 2 h values for the items below.

smiles.string: Cc1ccc2[nH]c(C(=O)N3CCC(CC(C)(C)O)CC3)cc2c1
measured: > 30 ×10⁻⁶ cm/s

smiles.string: CC(C)(O)CC1CCN(C(=O)c2cc3ccccc3[nH]2)CC1
measured: 26 ×10⁻⁶ cm/s

Supply measured Papp at 2 h of Cc1ccc2[nH]c(C(=O)N3CCC(CCO)CC3)cc2c1 in your reply.
> 30 ×10⁻⁶ cm/s
